Assign TGI to each entry below.
# Test system: NCI-H226 lung
# test.protocol: NCI tumour cell line growth inhibition, 48 h

Lookup result for C[C@]12CC[C@H]3[C@@H](CC[C@]4(O)C[C@@H](O)CC[C@]34/C=N/O)[C@@]1(O)CC[C@@H]2C1=COC(=O)C1 ; measured TGI: 1.35 µM

Lookup result for O=S1(=O)OCCOS(=O)(=O)C1Cc1ccccc1 ; measured TGI: > 100 µM

Lookup result for CC1(c2ccc[n+](Cc3ccccc3)c2)OCCO1 ; measured TGI: > 100 µM

Lookup result for O=C(NC[C@H](O)CO)c1ccncc1Nc1ccc(I)cc1F ; measured TGI: > 100 µM

Lookup result for O=C(Nc1ccc(Cl)c(Cl)c1)O/N=C\c1c(Cl)ccc([N+](=O)[O-])c1Cl ; measured TGI: 12.4 µM
